- measured.on: BCRP (Homo sapiens (Human))
- Sequence (Q9UNQ0 whole entry): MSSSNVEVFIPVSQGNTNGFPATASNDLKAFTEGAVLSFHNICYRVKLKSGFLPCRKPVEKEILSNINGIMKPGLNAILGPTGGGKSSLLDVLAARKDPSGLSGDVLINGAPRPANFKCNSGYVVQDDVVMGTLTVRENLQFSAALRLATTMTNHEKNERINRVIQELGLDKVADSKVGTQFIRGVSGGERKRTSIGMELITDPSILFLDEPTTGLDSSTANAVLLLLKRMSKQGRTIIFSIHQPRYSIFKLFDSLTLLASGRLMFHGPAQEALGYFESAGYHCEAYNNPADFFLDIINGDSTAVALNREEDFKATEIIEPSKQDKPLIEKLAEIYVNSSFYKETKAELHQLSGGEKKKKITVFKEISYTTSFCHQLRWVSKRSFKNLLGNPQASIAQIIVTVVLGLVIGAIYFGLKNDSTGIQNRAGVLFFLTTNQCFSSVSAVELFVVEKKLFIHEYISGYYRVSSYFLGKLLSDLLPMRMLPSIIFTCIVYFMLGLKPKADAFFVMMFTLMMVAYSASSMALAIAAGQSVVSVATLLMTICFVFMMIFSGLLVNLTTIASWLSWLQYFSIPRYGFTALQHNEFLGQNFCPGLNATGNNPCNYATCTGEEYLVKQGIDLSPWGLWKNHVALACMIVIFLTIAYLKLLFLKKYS
- assay: BCRP MDCKII permeability assay: efflux ratio
- Format: in vitro ADME
- details: dog
Where a name gives a salt, the structure may show the parent alone.
Cut-off 2 on efflux ratio at 2 h, 1 µM: below means T, at or above means F.

{"columns": ["compound", "category"],
 "data": [
  ["Cn1cnc2ccc(Nc3c(F)c(F)cc(NS(=O)(=O)N4CC[C@@H](F)C4)c3Cl)c(Cl)c2c1=O [Example 33, trifluoroacetate]", "F"]
]}

Query: For this compound, is efflux ratio at 2 h, 1 µM lower than 2? `COC1CN(S(=O)(=O)Nc2ccc(F)c(Nc3ccc4ncn(C)c(=O)c4c3F)c2Cl)C1`
Response: F

Query: Field entry: `Cc1c(Nc2c(F)ccc(NS(=O)(=O)N3CC[C@@H](OC(F)F)C3)c2Cl)ccc2ncn(C)c(=O)c12`
Response: T

Query: Next compound up: Cn1cnc2ccc(Nc3c(F)ccc(NS(=O)(=O)N4CC(F)C4)c3Cl)c(F)c2c1=O [Example 127, trifluoroacetate]
Response: F

Query: Record: CO[C@H]1CN(S(=O)(=O)Nc2ccc(F)c(Nc3ccc4ncn(C)c(=O)c4c3Br)c2Cl)C[C@H]1F (relative stereo) [Example 16, trifluoroacetate]
Response: F

Query: For Cn1cnc2ccc(Oc3c(F)ccc(NS(=O)(=O)N4CCCC4)c3Cl)c(F)c2c1=O [Example 44, trifluoroacetate] then?
Response: T

Query: Proceed to Cn1cnc2ccc(Nc3c(F)ccc(NS(=O)(=O)N4CC5CC5C4)c3Cl)c(Cl)c2c1=O (stereo not shown)
Response: T

---

- System: H1755 cells
- assay: Cellular phospho-ERK inhibition assay in H1755 cells
- Assay type: cell-based
- details: Homo sapiens, NCI-H1755, 2 hours treatment, read-out: H1755 Cell IC50
- Method: A375 and H1755 cells were obtained from the American Type Culture Collection (ATCC, Rockville, MD). A375 cells were maintained in DMEM growth medium containing 10% FBS. H1755 cells were maintained in RPMI growth medium containing 10% FBS. […] [formula] • Where: • Xmax Average Uninhibited Controls • Xmin Average Complete Inhibition Controls IC50 values were then calculated using a 4-parameter fit in XLfit software and are provided in Table A1.
Counter-ions that a name gives are not always drawn.
reported.metric: pIC50
Give bare numbers, as −log10 of the molar value.

Use the examples below as a reference point.
{"columns": ["molecule", "pIC50"],
 "data": [
  ["Cc1c(Nc2c(F)c(F)cc(NS(=O)(=O)N3CC[C@@H](F)C3)c2Cl)ccc2ncn(C)c(=O)c12", 6.79],
  ["[2H]C([2H])([2H])O[C@@H]1CCN(S(=O)(=O)Nc2ccc(F)c(Nc3ccc4ncn(C)c(=O)c4c3F)c2Cl)C1 [Example 54, trifluoroacetate]", 7.48]
]}

# batch size: 4; output pIC50 per entry
1. CO[C@@H]1CCN(S(=O)(=O)Nc2cc(F)c(F)c(Nc3ccc4ncn(C)c(=O)c4c3F)c2Cl)C1 [Example 47, trifluoroacetate]
2. Cn1cnc2ccc(Nc3c(F)ccc(NS(=O)(=O)N4CCCC4)c3Cl)c(F)c2c1=O [Example 7, trifluoroacetate]
3. CO[C@@H]1CCN(S(=O)(=O)Nc2cc(F)c(F)c(Nc3ccc4ncn(C)c(=O)c4c3C)c2Cl)C1
4. Cc1c(Nc2cc(Cl)cc(NS(=O)(=O)N3CCCC3)c2F)ccc2ncn(C)c(=O)c12

Response:
1: 7.64; 2: 7.51; 3: 7.00; 4: 6.51

Query: Reported pIC50 for `Cn1cnc2ccc(Nc3c(F)ccc(NS(=O)(=O)N4C[C@@H](F)[C@@H](F)C4)c3Cl)c(Cl)c2c1=O` : what is it?
Response: 7.28

Source: patent US12303509B2
